Record form. Attribute: [^3 H] Thymidine Uptake. Fill in for each entry.
tested on: normal human peripheral blood mononuclear leukocytes; test: cells; format: cell-based; details: 5.0 μM
Answer with a number only, understood to be in CPM × 10^-3.

Ask | Please give the measured [^3 H] Thymidine Uptake for this compound: CCCCCCCCCCCCCCC(CCCCCCCCCCCCCC)COC1OC(CO)C(OC2OC(CO)C(O)C(OC3(C(=O)O)CC(O)C(NC(C)=O)C(C(O)C(O)CO)O3)C2O)C(O)C1O (stereo not shown)
Reply | 0.3

Ask | Now consider CCCCCCCCCCCCCC=CC(O)C(COC1(C(=O)O)CC(O)C(NC(C)=O)C(C(O)C(O)CO)O1)NC(=O)CCCCCCCCCCCCCCCCC (stereo not shown) [αGM5] and answer again.
Reply | 0.1

Ask | Now consider CCCCCCCCCCCCCC=CC(O)C(COC1(C(=O)O)CC(O)C(NC(C)=O)C(C(O)C(O)CO)O1)NC(=O)CCCCCCCCCCCCCCCCC (stereo not shown) [βGM5] and answer again.
Reply | 0.3

Ask | Now consider CCCCCCCCCCCCCC=CC(O)C(COC1OC(CO)C(OC2OC(CO)C(O)C(OC3(C(=O)O)CC(O)C(NC(C)=O)C(C(O)C(O)CO)O3)C2O)C(O)C1O)NC(=O)CCCCCCCCCCCCC (stereo not shown) and answer again.
Reply | 0.8

* * *

test system: normal human peripheral blood mononuclear leukocytes; experiment: cells; format: cell-based; details: 2.5 μM
ATTRIBUTE_MEASURED: [^3 H] Thymidine Uptake (CPM × 10^-3)
Answer with a number only, understood to be in CPM × 10^-3.

Ask | Please give the measured [^3 H] Thymidine Uptake for this compound: CCCCCCCCCCCCCC=CC(O)C(COC1(C(=O)O)CC(O)C(NC(C)=O)C(C(O)C(O)CO)O1)NC(=O)CCCCCCCCCCCCCCCCC (stereo not shown) [αGM5]
Reply | 0.1

Ask | Now consider CCCCCCCCCCCCCCC(CCCCCCCCCCCCCC)COC1OC(CO)C(OC2OC(CO)C(O)C(OC3(C(=O)O)CC(O)C(NC(C)=O)C(C(O)C(O)CO)O3)C2O)C(O)C1O (stereo not shown) [dialkyl GM3] and answer again.
Reply | 0.7

Ask | Now consider CCCCCCCCCCCCCC=CC(O)C(COC1OC(CO)C(OC2OC(CO)C(O)C(OC3(C(=O)O)CC(O)C(NC(C)=O)C(C(O)C(O)CO)O3)C2O)C(O)C1O)NC(=O)CCCCCCCCCCCCC (stereo not shown) [GM3 d18:1-C14:0] and answer again.
Reply | 4.6

Ask | Now consider CCCCCCCCCCCCCC=CC(O)C(COC1(C(=O)O)CC(O)C(NC(C)=O)C(C(O)C(O)CO)O1)NC(=O)CCCCCCCCCCCCCCCCC (stereo not shown) [βGM5] and answer again.
Reply | 1.4

* * *

system: normal human peripheral blood mononuclear leukocytes; test: cells; assay type: cell-based; conditions: Homo sapiens, Leukocyte, read-out: ID50, inhibition of the human lymphoproliferative response
ATTRIBUTE_MEASURED: pIC50
# pIC50 is unitless: minus log10 of the molar concentration; print number only

Ask | Please state recorded pIC50 (tested on normal human peripheral blood mononuclear leukocytes) of CCCCCCCCCCCCCC=CC(O)C(COC1OC(CO)C(OC2OC(CO)C(O)C(OC3(C(=O)O)CC(O)C(NC(C)=O)C(C(O)C(O)CO)O3)C2O)C(O)C1O)NC(C)=O (stereo not shown)
Reply | 9.70

The origin of these recorded values is patent US5567684A.
